# target or test system: T1, human GIPR (glucose-dependent insulinotropic polypeptide receptor) (human, UniProt P48546 22-466)
# T1 sequence (looked up): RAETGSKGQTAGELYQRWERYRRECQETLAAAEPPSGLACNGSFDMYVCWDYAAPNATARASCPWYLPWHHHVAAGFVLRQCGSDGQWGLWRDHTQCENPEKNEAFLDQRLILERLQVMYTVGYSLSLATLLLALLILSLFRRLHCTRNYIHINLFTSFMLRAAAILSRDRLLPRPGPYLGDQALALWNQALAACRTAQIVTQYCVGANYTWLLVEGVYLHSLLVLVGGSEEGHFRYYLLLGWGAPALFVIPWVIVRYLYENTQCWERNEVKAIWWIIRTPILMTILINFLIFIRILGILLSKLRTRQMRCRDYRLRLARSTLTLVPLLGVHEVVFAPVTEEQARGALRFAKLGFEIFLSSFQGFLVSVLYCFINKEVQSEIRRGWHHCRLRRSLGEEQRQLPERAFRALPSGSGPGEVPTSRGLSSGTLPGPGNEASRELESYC
# measurement notes: cell-based or functional assay
Where no end group is shown, it is not given here. [ ]: non-standard residue; d: D form. The star is where a group is joined. Palmitoyl = CCCCCCCCCCCCCCCC(=O)*; Aib = CC(C)(N)C(=O)O
Each item that follows carries a reported cAMP assay: EC50 (nM) GIPR.
# do not omit the unit; it follows the number

Would you please look over these solved cases?
- binder: "HADGTFISDYSTILDKLAARDFINWLIQTK(C16 fatty acid)ITK [Compound no. 57]"
  result: "12.6 nM"
- binder: "Palmitoyl-HADGTFISDYST[Aib]LDNLAARDFINWLIQTKITKNDWKHNITQ [Compound no. 53]"
  result: "0.316 nM"
- binder: "Palmitoyl-HADGTFISDYSTILDNLAARDFINWLIETKITKNDWKHNITQ [Compound no. 51]"
  result: "0.398 nM"

Then there is this binder:
Ask: Quick one: cAMP assay: EC50 (nM) GIPR of Palmitoyl-HADGTFISDYSTILDNLAARDFINWLIATKITKNDWKHNITQ [Compound no. 52] ?
Reply: 0.251 nM
